# ASSAY REMARKS: MM1S cell viability effects, profiling panel, calcein-AM fluorescence, 48 h, basal (AID 1165);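 also: viability of MM1S multiple myeloma cells under basal unstimulated conditions; test concentration not given here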
# CONDITIONS: higher = more signal
The entries below are paired with their reported z-score.

# COMPOUND, z-score
rows = [
    ("COCCOC(=O)N1C(=O)[C@@]2(c3cc(C#CC4(O)CCCCCC4)ccc31)[C@H](C(=O)NC[C@H](O)c1ccccc1)[C@H]1C(=O)O[C@H](c3ccccc3)[C@H](c3ccccc3)N1[C@@H]2c1ccccc1OCCO", -3.26),
    ("C[C@@H](OCc1ccccc1)C1NC(=O)[C@@]23C(=O)N[C@@H](Cc4ccccc4)C2[C@H](C)[C@@]2(C)O[C@H]2C3/C=C/C/C=C\\CNC(=O)[C@@H]2CCCN2C1=O (stereo not given in full)", -1.11),
    ("COCCOC(=O)N1C(=O)[C@@]2(c3cc(C#CCNC(N)=O)ccc31)[C@H](C(=O)NC[C@H](O)c1ccccc1)[C@H]1C(=O)O[C@H](c3ccccc3)[C@H](c3ccccc3)N1[C@@H]2c1ccc(O)cc1", -0.825),
    ("CC(C)C(CO)N1C(=O)[C@@H]2C3C(=O)OCCC/C=C\\[C@H]3OC23C=CCN(C(C)C)C(=O)[C@@H]13 (stereo not given in full)", 0.239),
    ("CCOC(=O)C[C@H]1[C@H](OC(=O)c2cc3ccccc3oc2=O)[C@@H](NC(=O)c2ccccc2)c2cc(OCCCO)ccc2N1C(=O)Cc1ccc(OC)cc1", 0.497),
]

* * *

# SYSTEM TESTED: Left-right determination factor 2 (Homo sapiens) (UniProt O00292)
# Sequence (O00292 whole entry, looked up): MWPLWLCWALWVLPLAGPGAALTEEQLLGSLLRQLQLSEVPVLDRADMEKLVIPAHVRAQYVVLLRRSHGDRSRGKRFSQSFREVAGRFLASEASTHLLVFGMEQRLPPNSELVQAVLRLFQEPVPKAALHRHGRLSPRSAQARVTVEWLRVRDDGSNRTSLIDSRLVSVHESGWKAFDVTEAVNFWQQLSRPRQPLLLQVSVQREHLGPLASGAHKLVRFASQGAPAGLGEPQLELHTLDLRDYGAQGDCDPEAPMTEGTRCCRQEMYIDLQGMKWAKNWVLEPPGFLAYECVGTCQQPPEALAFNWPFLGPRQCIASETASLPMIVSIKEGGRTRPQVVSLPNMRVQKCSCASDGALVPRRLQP
# ASSAY REMARKS: LEFTY2 binders on small-molecule microarrays, primary screen, biochemical, small-molecule microarray, 635 nm fluorescence scan (AID 1110)
# CONDITIONS: LEFTY2 binding, higher = more signal
OBSERVABLE: composite z-score

# COMPOUND, OBSERVABLE, MEASURED VALUE
rows = [
    ("C=CCC1(CC=C)C[C@H]2CO[C@H](c3ccc(OC)cc3)N2C1=O", "composite z-score", 0.447),
    ("CC(C)(C)OC(=O)CC[C@]1(C(=O)NCc2ccccc2)N=C(c2ccc(OCCCO)cc2)O[C@H]1c1ccccc1N=[N+]=[N-]", "composite z-score", 0.478),
    ("CCCNC(=O)[C@@H]1c2ccccc2C(=O)N(Cc2cc(C(F)(F)F)cc(C(F)(F)F)c2)[C@H]1c1ccc(CO)cc1", "composite z-score", -0.402),
    ("CCCCCN1CC=CC23O[C@@H]4/C=C\\CCC(C)OC(=O)C4[C@H]2C(=O)N(CCO)[C@@H]3C1=O (some centres not stated)", "composite z-score", -1.43),
    ("COCCCNC(=O)[C@@]1(Cc2ccccc2CN=[N+]=[N-])COC(c2ccc(OCCCO)cc2)=N1", "composite z-score", -0.645),
    ("C=CCNC(=O)[C@@H]1[C@H]2C(=O)O[C@H](c3ccccc3)[C@H](c3ccccc3)N2[C@H](c2ccc(O)cc2)[C@@]12C(=O)N(C(=O)OCCOC)c1ccc(C#Cc3ccc(OC)cc3)cc12", "composite z-score", 0.638),
    ("CC(C)C[C@@H]1NC(=O)[C@@]23C(=O)N[C@@H](Cc4ccccc4)C2[C@H](C)[C@@]2(C)O[C@H]2C3/C=C/CC/C=C/CNC(=O)[C@@H](C)NC1=O (some centres not stated)", "composite z-score", 0.575),
]

* * *

The entries below are paired with their reported z-score.
# ASSAY REMARKS: E. coli acrAB mutant growth effects, primary screen, E. coli filamentation inducers, strain DRC39, OD650, 24 h (AID 1178);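 also: growth measured as culture turbidity by optical density at 650 nm; test concentration not given here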
# CONDITIONS: higher = more signal, called active from +8 up or from −8 down

# SMI, z-score
rows = [
    ("C=CCNC(=O)[C@@H]1[C@H]2C(=O)O[C@H](c3ccccc3)[C@H](c3ccccc3)N2[C@H](c2ccc(O)cc2)[C@@]12C(=O)Nc1ccc(C#Cc3ccc(OC)cc3)cc12", -0.071),
    ("O=C(NO)[C@]1(Cc2ccccc2)N=C(c2ccc(OCCCO)cc2)O[C@@H]1c1ccccc1", 2.26),
    ("C=CCNC(=O)[C@H]1[C@@H]2C(=O)O[C@@H](c3ccccc3)[C@@H](c3ccccc3)N2[C@@H](c2ccccc2OCCO)[C@]12C(=O)N(C(=O)OCCOC)c1ccc(C#CCCO)cc12", 0.488),
]

* * *

The entries below are paired with their reported composite z-score.
# SYSTEM TESTED: Streptavidin (Streptomyces avidinii)
# ASSAY REMARKS: streptavidin binders on small-molecule microarray, primary screen, artefact control for SMM compound annotation, biophysical, 635/667 nm fluorescence (AID 1147);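 also: signal reflects streptavidin binding to arrayed compounds as a control protein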
# CONDITIONS: streptavidin binding, higher = more signal

# COMPOUND, composite z-score
data = [
    ("O=C(NCC(F)(F)F)[C@@H]1c2ccccc2C(=O)N(C2Cc3ccccc3C2)[C@H]1c1ccc(CO)cc1", -1.25),
    ("[N-]=[N+]=NCc1ccccc1C[C@@]1(C(=O)O)N=C(c2ccc(OCCCO)cc2)O[C@@H]1c1ccccc1", 0.246),
    ("CCCCC(=C=CC[C@@H](O)c1ccc(OCCO)cc1)C[C@@H](O)c1cc(Cl)cc(Cl)c1O", 0.414),
    ("NC(=O)NCC#Cc1ccc2c(c1)[C@]1(C(=O)N2)[C@H](c2ccc(OCCO)cc2)N2[C@H](c3ccccc3)[C@H](c3ccccc3)OC(=O)[C@H]2[C@@H]1C(=O)Nc1nc2ccccc2s1", 0.453),
    ("CC(C)N1CC=CC23O[C@@H]4/C=C\\CCCOC(=O)C4[C@H]2C(=O)N(CCCO)[C@@H]3C1=O (stereo partly drawn)", -1.1),
    ("CC(CO)N1C(=O)[C@@H]2C3C(=O)OCCC/C=C\\[C@H]3OC23C=CCN(Cc2ccccc2)C(=O)[C@@H]13 (stereo partly drawn)", -1.03),
    ("C#CCOc1ccc(C[C@H]2C(=O)O[C@H](Cc3ccccc3)[C@H](/C=C/C3CC3)N2CC#C)cc1", -0.0298),
    ("O=C1O[C@@H](c2ccccc2)[C@@H](c2ccccc2)N2[C@@H](c3ccc(OCCO)cc3)[C@]3(C(=O)Nc4ccc(C#CC5(O)CCCCCC5)cc43)[C@@H](C(=O)NC[C@H](O)c3ccccc3)[C@H]12", 0.866),
]

* * *

# ASSAY REMARKS: basal RPMI8226 viability, no added stimulus, profiling panel, cell-based, calcein-AM fluorescence, 48 h, PK04 Diversity Set (AID 1166);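 also: cells grown under basal conditions without added stimulus; test concentration not given here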
# CONDITIONS: RPMI8226 myeloma viability, higher = more signal
Label 1 (yes) when z-score is strictly below 0.1; otherwise label 0 (no).

# SMI, CAT
rows = [
    ("CC(C)C[C@@H]1NC(=O)[C@@H]2C[C@H](C(=O)NCCCCCNC(=O)CS)[C@H](c3cccc(OCCO)c3)N2C1=O", "0 (no)"),
    ("O=C(N1CCCCC1)[C@@]1(Cc2ccccc2)N=C(c2ccc(OCCCO)cc2)O[C@H]1c1ccccc1", "1 (yes)"),
    ("Cc1ccc(N2C(=O)c3ccccc3[C@](C)(C(=O)NC3CC3)[C@@H]2c2ccc(CO)cc2)nc1", "0 (no)"),
    ("CCCCC(=C=CC[C@@H](O)c1ccc(OCCO)cc1)C[C@@H](O)c1cc(Cl)cc(Cl)c1O", "1 (yes)"),
    ("COCCOC(=O)N1C(=O)[C@@]2(c3cc(C#CCNC(N)=O)ccc31)[C@H](C(=O)NC[C@H](O)c1ccccc1)[C@H]1C(=O)O[C@H](c3ccccc3)[C@H](c3ccccc3)N1[C@@H]2c1ccc(O)cc1", "0 (no)"),
    ("COc1ccc([Si](C)(C)[C@@H]2[C@@H](CC(=O)N3CCC[C@H]3CO)O[C@]3(C(=O)N(Cc4ccc(I)cc4)c4ccccc43)[C@H]2C)cc1", "1 (yes)"),
    ("C=C(/C(=C/C[C@H](OC(C)=O)c1cccc(OCCO)c1)c1cc(C(=O)OC)ccc1OC)C(C)C", "0 (no)"),
    ("CC(C)C(=C=CC[C@@H](O)c1ccc(CO)o1)CCO", "0 (no)"),
]

* * *

The entries below are paired with their reported composite z-score.
# SYSTEM TESTED: Fibroblast growth factor 2 (Homo sapiens) (UniProt P09038)
# Sequence (P09038 whole entry, looked up): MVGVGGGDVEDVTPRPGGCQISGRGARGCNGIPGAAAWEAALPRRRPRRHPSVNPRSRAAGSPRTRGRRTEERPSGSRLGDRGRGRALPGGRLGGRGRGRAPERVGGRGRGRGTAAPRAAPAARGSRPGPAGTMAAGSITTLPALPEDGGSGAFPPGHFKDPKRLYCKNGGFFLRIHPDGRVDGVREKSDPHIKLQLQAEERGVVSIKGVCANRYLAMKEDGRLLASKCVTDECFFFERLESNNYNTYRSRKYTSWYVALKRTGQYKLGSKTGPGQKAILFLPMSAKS
# ASSAY REMARKS: FGF2 binders on small-molecule microarrays, primary screen, biochemical, small-molecule microarray, 635/667 nm fluorescence (AID 1133)
# CONDITIONS: small-molecule microarray binding, FGF2, fluorescence 635/667; higher = more signal

# SMI, composite z-score
records = [
    ("Cc1ccc(N2C(=O)c3ccccc3[C@](C)(C(=O)NCC(F)(F)F)[C@@H]2c2ccc(CO)cc2)nc1", -0.986),
    ("CC(C)NC(=O)[C@@H]1c2ccccc2C(=O)N(Cc2cc(F)cc(C(F)(F)F)c2)[C@H]1c1ccc(CO)cc1", -0.612),
    ("COc1ccc([Si](C)(C)[C@@H]2[C@@H](CC(=O)N3CCC[C@H]3CO)O[C@]3(C(=O)N(Cc4ccc(N5CCC5=O)cc4)c4ccccc43)[C@H]2C)cc1", 0.589),
    ("COc1ccc(C#Cc2ccc3c(c2)[C@]2(C(=O)N3)[C@H](c3ccc(O)cc3)N3[C@H](c4ccccc4)[C@H](c4ccccc4)OC(=O)[C@H]3[C@@H]2C(N)=O)cc1", -0.617),
    ("COc1ccc(C#Cc2ccc3c(c2)[C@]2(C(=O)N3)[C@H](c3ccc(O)cc3)N3[C@H](c4ccccc4)[C@H](c4ccccc4)OC(=O)[C@H]3[C@@H]2C(=O)N2CCN(c3ncccn3)CC2)cc1", 0.143),
    ("[N-]=[N+]=NCc1ccccc1C[C@@]1(C(=O)NCc2ccccc2)N=C(c2ccc(OCCCO)cc2)O[C@@H]1c1ccccc1", -0.165),
]
